Recorded values, source the supplement of paper PMC11451515.

test system: P12-Ichikawa; assay: cell viability relative to DMSO control; higher = less cytotoxic; conditions: HPLM + 10% dialyzed FBS; 48 h; 5.12 µM
readout-label: cell viability (%)
// units = %; emit number, no label

In: // query cell viability value for entry `COC1=CC(=CC=C1)C2=CC=C(NC(=O)/C3=C(/CCC3)C(O)=O)C(=C2)F`
Out: 100

In: Would you kindly share the measured cell viability for `COc1cccc2c(NCc3ccccc3)nc(-n3c(N)nc4ccccc43)nc12` ?
Out: 94.3

In: Entry COc1nccc(-c2c(-c3ccc(F)cc3)ncn2C2CCC(O)CC2)n1 (centres undefined) : reported cell viability = ?
Out: 101

In: Would you kindly share the measured cell viability for `C=CC(=O)Nc1cccc(Oc2nc(Nc3ccc(N4CCN(C)CC4)cc3OC)ncc2Cl)c1` ?
Out: 76.5

In: I'd like to know its cell viability. The compound in question is `CCCc1nc2c(C)cc(-c3nc4ccccc4n3C)cc2n1Cc1ccc(-c2ccccc2C(=O)O)cc1`
Out: 123

In: Any idea what cell viability was measured for `CN1/C=C(\N=C(NC2=CC=C(C=C2)C(=O)N3CCOCC3)/C1=O)/C4=C(C)C(=CC=C4)NC(=O)C5=CC=C(C=C5)C(C)(C)C` ?
Out: 98.3

In: What value of measured cell viability is listed for C=C[C@H]1CN2CCC1C[C@@H]2[C@@H](O)c1ccnc2ccccc12 (some centres undefined) ?
Out: 85.8

In: Entry under review: `Cc1cc(-c2nnc3n2CCCCC3)c(C)n1-c1ccccc1` . Reported cell viability?
Out: 115

In: Give the measured cell viability of `CCCCOc1ccc(CC(=O)NO)cc1` .
Out: 107

In: Quick one: cell viability for `Cn1cnc(-c2cc3nccc(Oc4ccc(NC(=S)NC(=O)Cc5ccccc5)cc4F)c3s2)c1` ?
Out: 83.9

In: // lookup cell viability for `Cc1cccc(N(C)C(=S)Oc2ccc3ccccc3c2)c1`
Out: 111

In: Fill in: cell viability of CCCNCC(O)COc1ccccc1C(=O)CCc1ccccc1 (centres undefined) is ___
Out: 118

In: I would be grateful if you could share the reported cell viability for `FC(F)(F)C1=CC=C2C(SCCCCCO\C3=C\O\C(CN4CCOCC4)=C/C3=O)=CC=NC2=C1` .
Out: 123

In: Give the measured cell viability of `O=C(NCCO[N+](=O)[O-])c1cccnc1` .
Out: 113

----------
tested on: P12-Ichikawa; experiment: AUC of viability dose-response curve (% viability x log10 dose units); higher = less sensitive; conditions: RPMI 5 mM glucose + 10% dialyzed FBS; 48 h
Assignment: determine reported AUC of viability dose-response curve for the given molecules.

In: Need AUC of viability dose-response curve of `N[C@@H](Cc1c[nH]c2ccc(O)cc12)C(=O)O` , thanks.
Out: 458

In: I have this molecule here, `COc1ccc(C(=O)CC(=O)c2ccc(C(C)(C)C)cc2)cc1` , and I need its recorded AUC of viability dose-response curve.
Out: 476

In: State the recorded AUC of viability dose-response curve for this entry: `NCCCCCC(=O)O`
Out: 463

In: Fill in: AUC of viability dose-response curve of `C[C@]12CC[C@@H]3c4ccc(O)cc4CC[C@H]3[C@@H]1CC[C@@H]2O` is ___
Out: 440

In: What value of AUC of viability dose-response curve has been reported for the following molecule? `CCNC(=O)Nc1ccc(-c2nc3c(c(N4CCOC[C@@H]4C)n2)CCN(C2COC2)C3)cc1`
Out: 356

In: Request the reported AUC of viability dose-response curve associated with `CC[C@H](NC(C)C)[C@H](O)c1ccc(O)c2[nH]c(=O)ccc12`
Out: 456

In: If you can, please state the reported AUC of viability dose-response curve value of `Cc1cccc(N(C)C(=S)Oc2ccc3ccccc3c2)c1` .
Out: 471

In: Would you kindly share the measured AUC of viability dose-response curve for `Cc1cc(SCc2sc(-c3ccc(C(F)(F)F)cc3)nc2C)ccc1OCC(=O)O` ?
Out: 458

In: Given the entry `O=C(C1CC1)N1CC[C@@H](Cn2c(-c3ccc(-c4ccc5occc5c4)cc3)nc3cnccc32)C1` , report its measured AUC of viability dose-response curve.
Out: 469

In: // returns reported AUC of viability dose-response curve for input `CN(C)CC[C@H](CSc1ccccc1)Nc1ccc([S+](=O)([O-])NC(=O)c2ccc(N3CCN(Cc4ccccc4-c4ccc(Cl)cc4)CC3)cc2)cc1[N+](=O)[O-]`
Out: 338

In: Which AUC of viability dose-response curve is reported for this molecule? `CCOc1cc(/C=C2/C(=O)N(c3ccccc3)N=C2C)cc(Cl)c1OCC(=O)OC`
Out: 418

In: Fill blank: measured AUC of viability dose-response curve of the molecule `CC1=CC=C2\N=C/3N(CC[C@@]3(O)C(=O)C2=C1)C4=CC=CC=C4` is ____.
Out: 400

In: Requested read-out: AUC of viability dose-response curve. Entry: `Nc1nc(Nc2ccc([S+](N)(=O)[O-])cc2)nn1C(=O)c1c(F)cccc1F`
Out: 439

In: Returns the measured AUC of viability dose-response curve for the input molecule. Input: CN1C2=CC(=O)/C(=N/NC(N)=O)C=C2CC1S(=O)(=O)[O-].[Na+] (centres undefined)
Out: 459

In: What does the record list as AUC of viability dose-response curve for O=C1CCC[C@@H]2[C@H]3CCC[N+]4([O-])CCC[C@@H](CN12)[C@@H]34 (some centres undefined) ?
Out: 422

In: Would you mind telling me what AUC of viability dose-response curve value was observed for `NC/1=N/C(=O)N(C[C@@H](CO)OC[P](O)(O)=O)/C=C1` ?
Out: 460

In: # get_value(readout='AUC of viability dose-response curve', item= `C/C(=C\c1csc(C)n1)[C@@H]1C[C@@H]2O[C@]2(C)CCC[C@H](C)[C@H](O)[C@@H](C)C(=O)C(C)(C)[C@@H](O)CC(=O)O1` )
Out: 184

In: Form field: reported AUC of viability dose-response curve of `COC1=CC(=CC=C1)C2=CC=C(NC(=O)/C3=C(/CCC3)C(O)=O)C(=C2)F`
Out: 431

In: Reported AUC of viability dose-response curve, molecule `OCCn1cc(-c2ccc3c(c2)CC/C3=N\O)c(-c2ccncc2)n1` : ____
Out: 440

In: Need AUC of viability dose-response curve of CC(Cc1ccc(O)c(O)c1)(NN)C(=O)O (centres undefined) , thanks.
Out: 465

In: Sample `CCCc1nc2c(C)cc(-c3nc4ccccc4n3C)cc2n1Cc1ccc(-c2ccccc2C(=O)O)cc1` — what was its AUC of viability dose-response curve?
Out: 465

In: I have this molecule here, CC(C[N+](C)(C)C)OC(N)=O (centres undefined) , and I need its recorded AUC of viability dose-response curve.
Out: 468

In: I have this molecule here, `CCc1ccc(C(=O)Nc2cc(CN3CCN(C)CC3)cc(C(F)(F)F)c2)cc1C#Cc1cnc2ccnn2c1` , and I need its recorded AUC of viability dose-response curve.
Out: 415

In: Would you kindly share the measured AUC of viability dose-response curve for `NC(=O)c1ccc(-c2nc(-c3ccc4c(c3)OCO4)c(-c3ccccn3)[nH]2)cc1` ?
Out: 452

In: Fill in: AUC of viability dose-response curve of `Cn1c(=O)c2[nH]cnc2n(C)c1=O` is ___
Out: 468

In: Request the reported AUC of viability dose-response curve associated with `CO[C@@H]1[C@@H](OC(N)=O)[C@@H](O)[C@H](OC2=CC=C3\C(=C(NC(=O)C4=CC=C([O-])C(=C4)CC=C(C)C)/C(=O)OC3=C2C)O)OC1(C)C`
Out: 464

In: Recorded AUC of viability dose-response curve of `CC(=O)OCC(=O)[C@@]12OC(C)(C)O[C@@H]1C[C@H]3[C@@H]4C[C@H](F)C/5=C/C(=O)/C=C\[C@]5(C)[C@@]4(F)[C@@H](O)C[C@]23C` , please.
Out: 344

In: Item under review: `NCCCC(O)(P(=O)(O)O)P(=O)(O)O.O.O.O.[Na+]` . Reported AUC of viability dose-response curve?
Out: 398

In: # lookup: AUC of viability dose-response curve of `Cc1ccc(NC(=O)c2cccc(N(C)C)c2)cc1NC(=O)c1ccc(O)cc1`
Out: 446
